System: Enterococcus faecium MDR Van A ATCC 51559
Experiment: MIC assay, E. faecium MDR Van A ATCC 51559
Assay type: cell-based
Settings: 24 h incubation, visual reading
ENDPOINT: Minimum Inhibitory Concentration (MIC) E. faecium ATCC51559

COMPOUND_STRING	TARGET_OF_ASSAY	ASSAY_RESULT
CNC(=O)[C@H](CCCCNC(=O)[C@H]1NC(=O)[C@H]2NC(=O)[C@H](NC(=O)[C@@H]3NC(=O)[C@H](CC(N)=O)NC(=O)[C@H](NC(=O)[C@@H](CC(C)C)NC)[C@H](O)c4ccc(c(Cl)c4)Oc4cc3cc(c4O[C@@H]3O[C@H](CO)[C@@H](O)[C@H](O)[C@H]3O)Oc3ccc(cc3Cl)[C@H]2O)c2ccc(O)c(c2)-c2c(O)cc(O)cc21)NC(=O)[C@H](CCCCN)NC(=O)[C@H](CCCCN)NC(=O)[C@H](CCCCNC(=O)Cc1ccc(-c2ccccc2)cc1)NC(=O)Cc1ccc(-c2ccccc2)cc1	Enterococcus faecium MDR Van A ATCC 51559	xx (xx = 1-4)
CCCCCCCCCC(=O)N[C@@H](CCCCN)C(=O)N1CCC(CNC(=O)[C@H]2NC(=O)[C@H]3NC(=O)[C@H](NC(=O)[C@@H]4NC(=O)[C@H](CC(N)=O)NC(=O)[C@H](NC(=O)[C@@H](CC(C)C)NC)[C@H](O)c5ccc(c(Cl)c5)Oc5cc4cc(c5O[C@@H]4O[C@H](CO)[C@@H](O)[C@H](O)[C@H]4O[C@H]4C[C@](C)(N)[C@H](O)[C@H](C)O4)Oc4ccc(cc4Cl)[C@H]3O)c3ccc(O)c(c3)-c3c(O)cc(O)cc32)CC1	Enterococcus faecium MDR Van A ATCC 51559	xx (xx = 1-4)

Source: patent US10947271B2
